- TEST DESCRIPTION: Cytotoxicity against human MT4 cells after 96 hrs by MTT method
- Format: cell-based
Listed below: CC50 at 96 h values for each entry.
Report the figure in µM without appending any unit label.

Study these solved cases before continuing.
| SMILES RECORD | CC50 at 96 h [µM] |
| --- | --- |
| CC(=O)Nc1ccnc2c(Cl)c(Cl)c3ncccc3c12 | 13 |
| Clc1c(Cl)c2nccc(Cl)c2c2cccnc12 | 6.4 |
| CCOc1ccnc2ccc3ncccc3c12 | 56 |
| Nc1ccnc2c(Cl)c(Cl)c3ncccc3c12 | 7.2 |

Please examine the following record next.
Return the recorded CC50 at 96 h value; entry: `c1cnc2ccc3ncccc3c2c1`
61

====

Below, each entry is listed alongside its reported pEC50.
- System: Coxsackievirus B2
- TEST DESCRIPTION: Antiviral activity against CVB2 in Vero 76 cells after 3 days by plaque reduction assay
- Assay type: functional, organism-based
- CONDITION DETAILS: Enterovirus B, 72 h
pEC50: −log10 of the molar value.

Supply measured pEC50 of `O=c1cc[nH]c2c(Cl)c(Cl)c3ncccc3c12` in your reply.
< 4.10

Please report the measured pEC50 for `O=C(O)c1c[nH]c2c(Cl)c(Cl)c3ncccc3c2c1=O`
< 4.00

Return value of pEC50 for input `c1cnc2ccc3ncccc3c2c1` , no commentary.
< 4.10

State, in one line, measured pEC50 of `Clc1c(Cl)c2nccc(Cl)c2c2cccnc12`
< 4.00

Input `CC(=O)Nc1ccnc2c(Cl)c(Cl)c3ncccc3c12` , output reported pEC50.
5.70

Using the record for `CCOc1ccnc2c(Cl)c(Cl)c3ncccc3c12` , state its measured pEC50.
5.70

Tell me measured pEC50 for `Nc1ccnc2ccc3ncccc3c12` please.
< 4.05

====

// reported pEC50 for each item listed
- System: Coxsackievirus B2
- TEST DESCRIPTION: Antiviral activity against CVB2 in Vero 76 cells after 3 days by plaque reduction assay
- Assay type: functional, organism-based
- CONDITION DETAILS: Enterovirus B, 72 h
Reminder that pEC50 means the negative base-10 logarithm of the concentration expressed in mol/L.

Known results for compounds:
| SMILES RECORD | SYSTEM NAME | RESULT NUMBER |
| --- | --- | --- |
| CCOc1ccnc2ccc3ncccc3c12 | Coxsackievirus B2 | 5.30 |
| Clc1c(Cl)c2ncccc2c2cccnc12 | Coxsackievirus B2 | 4.96 |

Specify pEC50 for `Nc1ccnc2c(Cl)c(Cl)c3ncccc3c12` and stop.
5.70

====

- TEST DESCRIPTION: Cytotoxicity against Vero 76 cells after 48 to 120 hrs by MTT method
- Type: cell-based
- CONDITION DETAILS: chlorocebus sabaeus
MEASURED ATTRIBUTE: CC50 (µM)
Dear colleague, please return just the value in µM, with no unit written.

Completed entries (count: 3):
| SMILES RECORD | CC50 [µM] |
| --- | --- |
| Nc1ccnc2c(Cl)c(Cl)c3ncccc3c12 | 40 |
| CCOc1ccnc2ccc3ncccc3c12 | 80 |
| CCOC(=O)c1c[nH]c2c(Cl)c(Cl)c3ncccc3c2c1=O | 90 |

Could you please provide reported CC50 for `Nc1ccnc2ccc3ncccc3c12` ? Thanks!
90

====

- System: Bovine viral diarrhea virus 1
- TEST DESCRIPTION: Antiviral activity against BVDV in MDBK cells assessed as inhibition of virus-induced cytopathogenicity after 2 to 3 days by MTT method
- Format: functional, organism-based
- CONDITION DETAILS: Bovine viral diarrhea virus isolates and strains
MEASURED ATTRIBUTE: pEC50
Expect pEC50 as a plain number equal to -log10 of the molar concentration.

| SMILES RECORD | pEC50 |
| --- | --- |
| CC(=O)Nc1ccnc2c(Cl)c(Cl)c3ncccc3c12 | 4.66 |

Specify pEC50 for `c1cnc2ccc3ncccc3c2c1` and stop.
4.77
